Source: PubChem BioAssay (NCI)

- experiment: NCI Yeast Anticancer Drug Screen. Data for the mec2-1 strain (AID 157)
- settings: S. cerevisiae mec2-1 strain, at 50.0 µM (retest, dose inferred, filed as 5.0), hits give high values
This is part of a sample that, as a whole, favours compounds with a hit. Of some 79,000 tested, about 15% had one in any assay.
reported_metric: growth inhibition (%)
A number alone suffices; assume %.

Record excerpt, results attached:
[
  {
    "molecule": "O=[N+]([O-])O.[In]",
    "growth inhibition / %": 53
  },
  {
    "molecule": "C[C@H]1CC[C@@]2(NC1)O[C@H]1C[C@H]3[C@@H]4CC[C@H]5C[C@@H](O)CC[C@]5(C)[C@H]4CC[C@]3(C)[C@H]1[C@@H]2C",
    "growth inhibition / %": 98
  },
  {
    "molecule": "ClCCN(CCCl)c1ccc(C2N(Cc3ccc(Cl)cc3)CCN2Cc2ccc(Cl)cc2)cc1",
    "growth inhibition / %": 85
  },
  {
    "molecule": "Cc1cc(CCN)c(C)c2c1oc1ccccc12",
    "growth inhibition / %": 88
  }
]

The measured growth inhibition associated with O=C(c1ccccc1)c1c(CC(O)c2cccnc2)n(C(=O)c2ccccc2)c2ccccc12 (stereo not given) reads 96
